# study-target: hM5 mAChR (Homo sapiens, UniProt P08912)
# Construct: expressed in transfected cells; host or cells: CHO-K1 (membrane preparation)
# Sequence (P08912 whole entry): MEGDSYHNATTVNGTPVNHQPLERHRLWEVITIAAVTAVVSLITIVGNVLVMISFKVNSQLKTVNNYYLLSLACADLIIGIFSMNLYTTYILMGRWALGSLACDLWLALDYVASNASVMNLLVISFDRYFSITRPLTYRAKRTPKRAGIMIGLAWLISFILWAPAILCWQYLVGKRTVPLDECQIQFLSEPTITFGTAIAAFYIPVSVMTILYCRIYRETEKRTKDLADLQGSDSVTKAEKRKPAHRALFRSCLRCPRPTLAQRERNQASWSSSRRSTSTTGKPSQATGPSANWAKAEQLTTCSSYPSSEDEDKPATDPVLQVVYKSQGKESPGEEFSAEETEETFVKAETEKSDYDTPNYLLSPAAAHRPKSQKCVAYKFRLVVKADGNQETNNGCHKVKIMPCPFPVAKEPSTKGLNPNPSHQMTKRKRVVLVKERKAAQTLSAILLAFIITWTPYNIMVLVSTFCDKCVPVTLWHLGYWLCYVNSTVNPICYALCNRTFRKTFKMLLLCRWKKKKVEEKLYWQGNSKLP
# assay-comment: [3H]NMS inhibition radioligand binding, hM5 in CHO-K1 cell membranes
# test-parameters: [3H]NMS, CHO-K1 cell membranes; mean ± S.E.M.
The label depends only on pKi hM5: true (1) if it is at least 6, false (0) if it is smaller.

Problem: Please indicate if the recorded pKi hM5 for C[N+](C)(C)C[C@@H]1COC[C@@H](c2ccc(S(=O)(=O)c3ccccc3)cc2)O1.[I-] (relative stereo) meets or exceeds 6.
Solution: false (0)

Problem: Please indicate if the recorded pKi hM5 for C[N+](C)(C)C[C@@H]1CO[C@H](c2ccccc2)CO1.[I-] (relative stereo) meets or exceeds 6.
Solution: false (0)

Problem: Please indicate if the recorded pKi hM5 for C[N+](C)(C)C[C@@H]1CO[C@H](c2ccc(S(=O)(=O)c3ccccc3)cc2)CO1.[I-] (relative stereo) [17a] meets or exceeds 6.
Solution: false (0)

Problem: Please indicate if the recorded pKi hM5 for CN(C)C[C@@H]1COC[C@](c2ccccc2)(C2CCCCC2)O1 [(2R,6R)-(+)-33b] meets or exceeds 6.
Solution: true (1)

Problem: Please indicate if the recorded pKi hM5 for C[N+](C)(C)C[C@@H]1COC[C@](c2ccccc2)(C2CCCCC2)O1 [(2R,6R)-(+)-3b] meets or exceeds 6.
Solution: true (1)

Problem: Please indicate if the recorded pKi hM5 for C[N+](C)(C)C[C@@H]1COC[C@](c2ccccc2)(C2CCCCC2)O1.[I-] (relative stereo) meets or exceeds 6.
Solution: true (1)

Problem: Please indicate if the recorded pKi hM5 for C[N+](C)(C)C[C@@H]1CO[C@@H](c2ccccc2)CO1.[I-] (relative stereo) meets or exceeds 6.
Solution: false (0)

Problem: Please indicate if the recorded pKi hM5 for C[N+](C)(C)C[C@@H]1COC[C@H](c2ccc(S(=O)(=O)c3ccccc3)cc2)O1.[I-] (relative stereo) meets or exceeds 6.
Solution: false (0)

Problem: Please indicate if the recorded pKi hM5 for C[N+](C)(C)C[C@@H]1CO[C@H](c2ccc(-c3ccccc3)cc2)CO1.[I-] (relative stereo) [13a] meets or exceeds 6.
Solution: false (0)

Problem: Please indicate if the recorded pKi hM5 for C[N+](C)(C)C[C@@H]1COC[C@H](c2ccc(Sc3ccccc3)cc2)O1.[I-] (relative stereo) meets or exceeds 6.
Solution: false (0)

Problem: Please indicate if the recorded pKi hM5 for C[N+](C)(C)C[C@@H]1CO[C@H](c2ccc(Cc3ccccc3)cc2)CO1.[I-] (relative stereo) [14a] meets or exceeds 6.
Solution: false (0)

Problem: Please indicate if the recorded pKi hM5 for C[N+](C)(C)C[C@@H]1COC[C@@](c2ccccc2)(C2CCCCC2)O1.[I-] (relative stereo) meets or exceeds 6.
Solution: true (1)

Problem: Please indicate if the recorded pKi hM5 for CN(C)C[C@H]1COC[C@@](c2ccccc2)(C2CCCCC2)O1 [(2S,6S)-(−)-33b] meets or exceeds 6.
Solution: true (1)

Problem: Please indicate if the recorded pKi hM5 for C[N+](C)(C)C[C@@H]1COC[C@H](c2ccc([S+]([O-])c3ccccc3)cc2)O1.[I-] (relative stereo) meets or exceeds 6.
Solution: false (0)

Problem: Please indicate if the recorded pKi hM5 for C[N+](C)(C)C[C@@H]1CO[C@@H](c2ccccc2)[C@H](c2ccccc2)O1.[I-] (relative stereo) [18a] meets or exceeds 6.
Solution: false (0)

Problem: Please indicate if the recorded pKi hM5 for C[N+](C)(C)C[C@@H]1CO[C@H](C(c2ccccc2)c2ccccc2)CO1.[I-] (relative stereo) [12a] meets or exceeds 6.
Solution: false (0)

Problem: Please indicate if the recorded pKi hM5 for C[N+](C)(C)C[C@@H]1CO[C@@H](c2ccc(Cc3ccccc3)cc2)CO1.[I-] (relative stereo) [14b] meets or exceeds 6.
Solution: false (0)

Problem: Please indicate if the recorded pKi hM5 for C[N+](C)(C)C[C@@H]1CO[C@@H](c2ccc(S(=O)(=O)c3ccccc3)cc2)CO1.[I-] (relative stereo) [17b] meets or exceeds 6.
Solution: false (0)
